Values were extracted from ChEMBL document CHEMBL4627335.

- TGT: Histone-lysine N-methyltransferase SETD7 (Homo sapiens)
- Sequence (Q8WTS6 whole entry): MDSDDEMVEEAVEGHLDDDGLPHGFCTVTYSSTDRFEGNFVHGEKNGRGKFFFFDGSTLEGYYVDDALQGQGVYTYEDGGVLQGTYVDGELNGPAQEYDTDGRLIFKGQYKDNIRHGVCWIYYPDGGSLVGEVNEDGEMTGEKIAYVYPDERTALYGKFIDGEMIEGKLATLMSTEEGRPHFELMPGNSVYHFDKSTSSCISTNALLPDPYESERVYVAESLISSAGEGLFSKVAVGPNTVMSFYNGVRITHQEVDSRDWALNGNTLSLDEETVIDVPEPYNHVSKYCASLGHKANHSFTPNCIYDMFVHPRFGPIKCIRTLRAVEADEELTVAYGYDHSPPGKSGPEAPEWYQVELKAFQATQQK
pIC50: −log10 of the molar value.
ENDPOINT_LABEL: pIC50

In: Request - read-out pIC50 | tested on Histone-lysine N-methyltransferase SETD7 (Homo sapiens) | compound N#Cc1cccc(-c2ccc(C(=O)O)cc2)c1
Out: < 3.70

In: Which measured pIC50 belongs to CC(C)c1ccc(C2=CC(=O)C=CC2=O)cc1 , tested on Histone-lysine N-methyltransferase SETD7 (Homo sapiens)?
Out: < 3.70

In: Any idea what pIC50 came out for CN(C)CCNC(=O)c1ccc(-c2ccc(C#N)cc2)cc1 on Histone-lysine N-methyltransferase SETD7 (Homo sapiens)?
Out: < 3.70
